Test system: PuPuf4 R111A F147A K368A (Pythium ultimum)
Test: MST
Details: MST: 50 mM Tris pH 7.5, 150 mM NaCl, 10 mM MgCl2, 0.05% Tween 20, 25 C; EMSA: Beyotime EMSA/Gel-Shift Binding Buffer, 50 ng RNA, 25 C 30 min, 1% agarose gel
endpoint.name: pKd
Convention used: pKd is expressed as -log10 of the molar concentration.

Output measured pKd for this item: GCCCAGUGCUCUGAAUGUCAAAGUGAAGAGAUUCACCAAGCGGCGGGUAAACGCG [H68 rRNA]
6.21

###

Tested on: PuPuf4 (Pythium ultimum)
Test: MST
Conditions: MST: 50 mM Tris pH 7.5, 150 mM NaCl, 10 mM MgCl2, 0.05% Tween 20, 25 C; EMSA: Beyotime EMSA/Gel-Shift Binding Buffer, 50 ng RNA, 25 C 30 min, 1% agarose gel
endpoint.name: Kd (nM)
Reply with just the number (in nM).

Answer with reported Kd of GCCCAGUGCUCUGAAUGUCAAAGUGAAGAGAUUCACCAAGCGGCGGGUAAACGCG [H68 rRNA]
240
